Tested on: Plasmodium berghei schizonts (ANKA 2.34), chloroquine-sensitive
Assay: microbe, parasite or virus in culture
Details: 16 h
Non-standard residues stand in square brackets, D forms with d. Residues, ends and D or L forms follow the SMILES beside them. Orn = NCCC[C@H](N)C(=O)O
reported_metric: log10(IC50) (log10 of the value in µM)
// units: µM (pre-log); metric: IC50; scale: log10

Recorded log10(IC50), per entry:
Data request: # query: log10(IC50) of entry CC[C@H](C)[C@H](N)C(=O)N[C@@H](CCCCN)C(=O)N[C@@H](Cc1ccccc1)C(=O)N[C@@H](CCCN)C(=O)O [Compound 1, Ile-Lys-Phe-Orn] (H-IKF[Orn]-OH)
Data returned: 1.51

Data request: NCCCC[C@H](N)C(=O)N[C@@H](Cc1ccccc1)C(=O)N[C@@H](Cc1ccccc1)C(=O)N[C@@H](CCCN)C(=O)O [Compound 5, Lys-Phe-Phe-Orn] (H-KFF[Orn]-OH) , same question.
Data returned: 0.41

Data request: NCCCC[C@H](N)C(=O)N[C@@H](CCCN)C(=O)N[C@@H](Cc1ccccc1)C(=O)N[C@@H](CCCN)C(=O)O [Compound 3, Lys-Orn-Phe-Orn] (H-K[Orn]F[Orn]-OH) , same question.
Data returned: 1.13

Data request: CC(C)[C@H](NC(=O)[C@H](CCCN)NC(=O)[C@@H](N)Cc1ccccc1)C(=O)O [Compound 9, Phe-Orn-Val] (H-Phe-[Orn]-Val-OH) , same question.
Data returned: 2.08

We next turn to a different molecule, shown below.
Data request: # query: log10(IC50) of entry CC(C)[C@H](N)C(=O)N[C@@H](CCCCN)C(=O)N[C@@H](Cc1ccccc1)C(=O)N[C@@H](CCCN)C(=O)O [Compound 2, Val-Lys-Phe-Orn] (H-VKF[Orn]-OH)
Data returned: 1.00
